- System: Streptococcus pyogenes SSI-9
- protocol-summary: Antibacterial activity assay of bead-derived peptides (three concentrations)
- Type: cell-based
- Parameters: key: +++: inhibition by the 640-fold diluted peptide solution; ++: inhibition by the 160-fold diluted solution; +: inhibition by the 40-fold diluted solution; -: no inhibition
- reported-conditions: S. pyogenes, bead-derived peptide solution, three concentrations
Where a SMILES comes first, the peptide text is derived from it. [ ]: non-standard residue; d: D form. The star is where a group is joined. NHCH2CH2OH = OCCN*; For = O=C*
quantity: antibacterial activity

CC(C)C[C@@H](NC(=O)[C@H](C)NC(=O)[C@H](NC(=O)[C@H](C)NC(=O)CNC(=O)[C@@H](NC=O)C(C)C)C(C)C)C(=O)N[C@H](C(=O)N[C@@H](C(=O)N[C@@H](Cc1c[nH]c2ccccc12)C(=O)N[C@@H](C(=O)N[C@@H](Cc1c[nH]c2ccccc12)C(=O)N[C@@H](C(=O)N[C@@H](Cc1c[nH]c2ccccc12)C(=O)N[C@@H](C(=O)N[C@@H](Cc1c[nH]c2ccccc12)C(=O)NCCO)C(C)C)C(C)C)C(C)C)[C@H](C)O)C(C)C [compound 3492] (For-VGA[dV]A[dL]V[dT]W[dV]W[dV]W[dV]W-NHCH2CH2OH) :: -
CC(C)C[C@@H](NC(=O)[C@H](C)NC(=O)CNC(=O)[C@@H](NC=O)C(C)C)C(=O)N[C@@H](C)C(=O)N[C@H](CC(C)C)C(=O)N[C@H](C(=O)N[C@H](CC(C)C)C(=O)N[C@@H](Cc1c[nH]c2ccccc12)C(=O)N[C@@H](C(=O)N[C@@H](Cc1c[nH]c2ccccc12)C(=O)N[C@@H](C(=O)N[C@@H](Cc1c[nH]c2ccccc12)C(=O)N[C@@H](C(=O)N[C@@H](Cc1c[nH]c2ccccc12)C(=O)NCCO)C(C)C)C(C)C)[C@H](C)O)C(C)C [compound 4532] (For-VGA[dL]A[dL]V[dL]W[dT]W[dV]W[dV]W-NHCH2CH2OH) :: -

---

- Tested on: rabbit red blood cells
- reported-conditions: red cells of rabbit, 2 h
- Method: Second, we examined the cytotoxicity toward mammalian cancer cells and hemolytic activity of 1. […] Hemolytic activity was evaluated by monitoring hemoglobin leakage from rabbit red blood cells as a consequence of membrane damage. The concentration of 1 required to cause 10% hemoglobin leakage (HC10) was 160 nM. […] supernatant was transferred to a 96-well plate (TR5003, TrueLine). The absorbance of each well at 415 nm was measured using a Thermo Scientific Multiskan GO (Thermo Fisher Scientific). […]
Where a SMILES comes first, the peptide text is derived from it. [ ]: non-standard residue; d: D form. The star is where a group is joined. NHCH2CH2OH = OCCN*; For = O=C*
quantity: Hemolytic activity HC10 (concentration causing 10% hemolysis)
Form field: result (number plus unit)

Here are 2 molecules together with their reported answers.
CC(C)C[C@@H](NC(=O)[C@H](C)NC(=O)CNC(=O)[C@@H](NC=O)C(C)C)C(=O)N[C@@H](C)C(=O)N[C@@H](C(=O)N[C@H](C(=O)N[C@@H](C(=O)N[C@@H](Cc1c[nH]c2ccccc12)C(=O)N[C@@H](C(=O)N[C@@H](Cc1c[nH]c2ccccc12)C(=O)N[C@H](CC(C)C)C(=O)N[C@@H](Cc1c[nH]c2ccccc12)C(=O)N[C@@H](C(=O)N[C@@H](Cc1c[nH]c2ccccc12)C(=O)NCCO)C(C)C)C(C)C)C(C)C)C(C)C)C(C)C [B04] (For-VGA[dL]A[dV]V[dV]W[dV]W[dL]W[dV]W-NHCH2CH2OH) :: 1100 nM
CC(C)C[C@@H](NC(=O)[C@H](Cc1c[nH]c2ccccc12)NC(=O)[C@H](NC(=O)[C@@H](NC(=O)[C@H](NC(=O)[C@H](C)NC(=O)[C@H](NC(=O)[C@H](C)NC(=O)CNC(=O)[C@@H](NC=O)C(C)C)C(C)C)C(C)C)C(C)C)C(C)C)C(=O)N[C@@H](Cc1c[nH]c2ccccc12)C(=O)N[C@@H](C(=O)N[C@@H](Cc1c[nH]c2ccccc12)C(=O)N[C@@H](C(=O)N[C@@H](Cc1c[nH]c2ccccc12)C(=O)NCCO)C(C)C)C(C)C [B01] (For-VGA[dV]A[dV]V[dV]W[dL]W[dV]W[dV]W-NHCH2CH2OH) :: 1100 nM

Now for the molecule whose Hemolytic activity HC10 (concentration causing 10% hemolysis) we want.
rabbit red blood cells / Hemolytic activity HC10 (concentration causing 10% hemolysis) / CC(C)C[C@@H](NC(=O)[C@H](C)NC(=O)CNC(=O)[C@@H](NC=O)C(C)C)C(=O)N[C@@H](C)C(=O)N[C@@H](C(=O)N[C@H](C(=O)N[C@@H](C(=O)N[C@@H](Cc1c[nH]c2ccccc12)C(=O)N[C@@H](C(=O)N[C@@H](Cc1c[nH]c2ccccc12)C(=O)N[C@@H](C(=O)N[C@@H](Cc1c[nH]c2ccccc12)C(=O)N[C@@H](C(=O)N[C@@H](Cc1c[nH]c2ccccc12)C(=O)NCCO)C(C)C)C(C)C)C(C)C)C(C)C)C(C)C)C(C)C [B03] (For-VGA[dL]A[dV]V[dV]W[dV]W[dV]W[dV]W-NHCH2CH2OH) : value?
2000 nM

---

// reported cell viability/% per item
- System: P388 mouse leukemia cells
- reported-conditions: 92 h
Where a SMILES comes first, the peptide text is derived from it. [ ]: non-standard residue; d: D form. The star is where a group is joined. NHCH2CH2OH = OCCN*; For = O=C*
API: value field is a number in %; no unit string.

CNC(=O)C[C@@H](NC(=O)[C@@H](NC(=O)[C@@H](CC(C)C)NC(=O)[C@H](C)NC(=O)[C@@H](CC(C)C)NC(=O)[C@H](C)NC(=O)CNC(=O)[C@@H](NC=O)C(C)C)C(C)C)C(=O)N[C@@H](Cc1c[nH]c2ccccc12)C(=O)N[C@H](CC(C)C)C(=O)N[C@@H](Cc1c[nH]c2ccccc12)C(=O)N[C@@H](C(=O)N[C@@H](Cc1c[nH]c2ccccc12)C(=O)N[C@H](CC(C)C)C(=O)N[C@@H](Cc1c[nH]c2ccccc12)C(=O)NCCO)C(C)C [compound 8600] (For-VGA[dL]A[dL]V[dD](NHMe)W[dL]W[dV]W[dL]W-NHCH2CH2OH) :: 55.3

Now for the molecule whose cell viability/% we want.
P388 mouse leukemia cells / cell viability/% / CC(C)C[C@@H](NC(=O)[C@H](C)NC(=O)CNC(=O)[C@@H](NC=O)C(C)C)C(=O)N[C@@H](C)C(=O)N[C@@H](C(=O)N[C@H](C(=O)N[C@@H](C(=O)N[C@@H](Cc1c[nH]c2ccccc12)C(=O)N[C@@H](C(=O)N[C@@H](Cc1c[nH]c2ccccc12)C(=O)N[C@@H](C(=O)N[C@@H](Cc1c[nH]c2ccccc12)C(=O)N[C@H](CC(C)C)C(=O)N[C@@H](Cc1c[nH]c2ccccc12)C(=O)NCCO)C(C)C)C(C)C)[C@H](C)O)C(C)C)C(C)C [compound 809] (For-VGA[dL]A[dV]V[dT]W[dV]W[dV]W[dL]W-NHCH2CH2OH) : value?
100.0

---

- Test system: Streptococcus pyogenes SSI-9
- protocol-summary: Antibacterial activity assay of bead-derived peptides (three concentrations)
- Format: cell-based
- Parameters: key: +++: inhibition by the 640-fold diluted peptide solution; ++: inhibition by the 160-fold diluted solution; +: inhibition by the 40-fold diluted solution; -: no inhibition
- reported-conditions: S. pyogenes, bead-derived peptide solution, three concentrations
- Description: Each type of assay must be simplified and miniaturized to assess the activities of the library peptides in a 96-well format for the high-throughput screening. Next, the peptides in groups A and B were subjected to the antibacterial assay and structural determination. Three peptide concentrations were applied to evaluate the growth inhibition of S. pyogenes and determine the antibacterial activity. […] Finally, the structures of the peptides were determined. […]
Where a SMILES comes first, the peptide text is derived from it. [ ]: non-standard residue; d: D form. The star is where a group is joined. NHCH2CH2OH = OCCN*; For = O=C*
quantity: antibacterial activity

CC(C)C[C@@H](NC(=O)[C@H](Cc1c[nH]c2ccccc12)NC(=O)[C@H](NC(=O)[C@@H](NC(=O)[C@H](NC(=O)[C@H](C)NC(=O)[C@H](NC(=O)[C@H](C)NC(=O)CNC(=O)[C@@H](NC=O)C(C)C)C(C)C)C(C)C)C(C)C)[C@H](C)O)C(=O)N[C@@H](Cc1c[nH]c2ccccc12)C(=O)N[C@@H](C(=O)N[C@@H](Cc1c[nH]c2ccccc12)C(=O)N[C@@H](C(=O)N[C@@H](Cc1c[nH]c2ccccc12)C(=O)NCCO)C(C)C)C(C)C [compound 8596] (For-VGA[dV]A[dV]V[dT]W[dL]W[dV]W[dV]W-NHCH2CH2OH) :: -
